Source of measurements: patent US11292801B2

Entries and their IC50 values follow.
- measurement.target: Human Calpain 1/NS1 (Homo sapiens, UniProt P07384)
- Sequence (P07384 whole entry): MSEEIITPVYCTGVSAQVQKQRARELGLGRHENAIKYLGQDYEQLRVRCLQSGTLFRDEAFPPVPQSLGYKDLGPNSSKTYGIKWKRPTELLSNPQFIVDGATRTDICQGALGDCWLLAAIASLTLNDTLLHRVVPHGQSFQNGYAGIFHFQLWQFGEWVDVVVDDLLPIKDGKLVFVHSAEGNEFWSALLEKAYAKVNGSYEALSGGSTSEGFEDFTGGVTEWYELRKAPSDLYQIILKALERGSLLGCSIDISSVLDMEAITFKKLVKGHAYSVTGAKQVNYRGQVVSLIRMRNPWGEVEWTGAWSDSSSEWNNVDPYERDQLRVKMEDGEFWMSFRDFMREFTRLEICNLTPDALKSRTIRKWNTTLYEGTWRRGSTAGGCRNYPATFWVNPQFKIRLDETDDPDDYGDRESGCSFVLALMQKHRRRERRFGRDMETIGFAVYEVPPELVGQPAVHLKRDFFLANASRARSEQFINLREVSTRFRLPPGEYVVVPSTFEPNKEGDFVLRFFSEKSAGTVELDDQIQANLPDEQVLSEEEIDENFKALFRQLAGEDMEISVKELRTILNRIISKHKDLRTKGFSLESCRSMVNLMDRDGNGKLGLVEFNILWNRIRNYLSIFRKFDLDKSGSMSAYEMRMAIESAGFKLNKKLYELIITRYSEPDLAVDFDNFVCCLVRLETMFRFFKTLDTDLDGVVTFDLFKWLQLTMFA
- Sequence (P04632 whole entry partner): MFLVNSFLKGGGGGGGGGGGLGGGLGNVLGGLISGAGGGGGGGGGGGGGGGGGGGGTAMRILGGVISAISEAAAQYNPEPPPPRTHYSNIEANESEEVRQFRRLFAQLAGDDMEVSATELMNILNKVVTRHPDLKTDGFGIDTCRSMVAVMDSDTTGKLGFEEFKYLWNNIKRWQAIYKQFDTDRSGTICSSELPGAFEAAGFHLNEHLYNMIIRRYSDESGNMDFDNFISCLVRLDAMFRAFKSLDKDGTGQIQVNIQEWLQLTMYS
- test.protocol: Biochemical inhibition of calpain 1, continuous fluorescence (FRET substrate) assay
- condition.description: mean, read-out: Human Calpain 1/NS1 IC50 (nM)_MEAN

Below, each entry is followed by its recorded IC50 result.
O=C[C@@H]1Cc2ccccc2C=CCCCCOc2ccccc2C(=O)N1 : 3000 to 10000 nM
O=C[C@@H]1C/C=C/CCCCCCc2ccccc2C(=O)N1 : 3000 to 10000 nM
O=C[C@@H]1CC=CCOCCCCOCc2ccccc2C(=O)N1 : < 3000 nM
O=C[C@@H]1Cc2ccc(cc2)OCCCCOc2ccc3c(cnn3-c3ncccc3C(=O)N1)c2 : < 3000 nM
C/C1=C\C[C@@H](C=O)NC(=O)c2cc(C)nn2-c2cccc(c2)OCC1 : < 3000 nM
O=C(NCCc1cccnc1)C(=O)C1CCCCOCCOCc2ccccc2C(=O)N1 (stereo not drawn) : > 10000 nM
COc1ccc(CNC(=O)C(=O)C2CCCCOCCOCc3ccccc3C(=O)N2)c(OC)c1 (stereo not drawn) : > 10000 nM
O=C[C@@H]1CCCCCCOc2ccccc2C(=O)N1 : > 10000 nM

Let us examine a further case.
Lookup: What value of measured IC50 is listed for O=C[C@@H]1CCCCOCCOCc2ccccc2C(=O)N1 ?
Found: > 10000 nM
